The reader will find reported C6/36 Viability values listed item by item below.
- System: C6/36 cells
- Format: cell-based, Ae. albopictus
- test.settings: 10 µM

Below, each entry is followed by its recorded C6/36 Viability result.
compound: O=C(/C=C/c1cccnc1)NCCCCC1CCN(C(=O)c2ccccc2)CC1
C6/36 Viability: 48 ± 5.5% of untreated control
--
compound: CCN(CCO)CCCC(C)Nc1ccnc2cc(Cl)ccc12 (stereo not shown) [Hydroxychloroquine]
C6/36 Viability: 35 ± 9.7% of untreated control
--
compound: C/C=C(/C)C(=O)O[C@H]1C(C)=C2[C@H]([C@@H]1OC(=O)CCCCCCC)[C@@](C)(OC(C)=O)C[C@H](OC(=O)CCC)[C@@]1(O)[C@H]2OC(=O)[C@@]1(C)O
C6/36 Viability: 23 ± 3.9% of untreated control

Now take the following compound into account.
Task: Which C6/36 Viability value belongs to Cn1nnc2c(C(N)=O)ncn2c1=O [Temozolomide] ?
Result: 113 ± 9.2% of untreated control
